Source: patent EP0579169B1

# protocol.details: Toxicity, LD50 by the up-and-down method
# Assay type: in vivo
# conditions.used: mouse, in vivo, iv
parameter.measured: LD50

[[record]]
compound = "O=C(O)/C=C/C(=O)O.O=C1OC(CCc2ccccc2)CN1C(CCN1CCOCC1)c1ccccc1 (single isomer, unassigned)"
obs_value = "45 mg/kg"

[[record]]
compound = "CC(C)CC1COC(=O)N1C(CCN1CCOCC1)c1ccccc1.O=C(O)/C=C/C(=O)O (single isomer, unassigned)"
obs_value = "137 mg/kg"

[[record]]
compound = "O=C1OC(Cc2ccccc2)CN1C(CCN1CCOCC1)c1cccs1 (single isomer, unassigned)"
obs_value = "59 mg/kg"

[[record]]
compound = "O=C(O)/C=C/C(=O)O.O=C1OC(CCc2ccccc2Cl)CN1C(CCN1CCOCC1)c1ccccc1 (single isomer, unassigned)"
obs_value = "75 mg/kg"

[[record]]
compound = "O=C(O)/C=C/C(=O)O.O=C1OC(CCc2ccccc2Br)CN1C(CCN1CCOCC1)c1ccccc1 (single isomer, unassigned)"
obs_value = "79 mg/kg"

[[record]]
compound = "O=C(O)/C=C/C(=O)O.O=C1OC(Cc2cccs2)CN1C(CCN1CCOCC1)c1ccccc1 (single isomer, unassigned)"
obs_value = "84 mg/kg"

